All figures here come from PubChem BioAssay.

Assay: cell viability in Huh7 cells, primary screen, cytotoxicity control for HCV replication inhibitor project, CellTiter-Glo luminescence, basal, 48 h (AID 1143);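 also: Huh7 hepatoma cells carrying a hepatitis C replication reporter with no stimulus; test concentration not given here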
Details: Huh7 HCV replicon, higher = more signal, called active from +8 up or from −8 down
Label 1 when z-score >= -0.3; otherwise 0.

Ask: Decide: z-score of "C=CCNC(=O)[C@@H]1[C@H]2C(=O)O[C@H](c3ccccc3)[C@H](c3ccccc3)N2[C@H](c2ccc(OCCO)cc2)[C@@]12C(=O)Nc1ccc(C#CCNC(N)=O)cc12" >= -0.3?
Reply: 1

Ask: Is the recorded value of z-score equal to or greater than -0.3 for this compound? "CN(C)CCCC[C@@H]1NC(=O)[C@H]2C[C@@H](C(=O)NCCCCCCNC(=O)CS)[C@@H](c3cccc(OCCO)c3)N2C1=O"
Reply: 1

Ask: z-score >= -0.3 for C=CCC(OC(C)=O)[C@@H]1[C@@H](N(Cc2ccc(-c3ccccc3)cc2)C(=O)Cc2ccc(OC)cc2)c2cc(OCCCO)ccc2N1C(=O)c1ccc2ccccc2c1 (some centres undefined) ?
Reply: 0

Ask: Evaluate "COC(=O)c1c2oc(c1C(=O)OC)C(=O)N[C@H](Cc1ccccc1)Cn1cc(nn1)C1(CCCCC1)NC(=O)N[C@H](CO)CC2" : z-score at minimum -0.3?
Reply: 1

Ask: Say whether "C[C@]1(C(=O)O)c2ccccc2C(=O)N(Cc2cc(C(F)(F)F)cc(C(F)(F)F)c2)[C@H]1c1ccc(CO)cc1" shows z-score of -0.3 or more.
Reply: 1

Ask: Quick check: does "C=C(C(=O)CC[C@@H](OC(=O)c1cccnc1)c1cccc(OCCO)c1)C(C)C" have z-score greater than or equal to -0.3?
Reply: 0

Ask: Say whether "COc1ccc([Si](C)(C)[C@H]2[C@H](CC(=O)N(CCO)Cc3ccccc3)O[C@@]3(C(=O)N(Cc4ccc(N5C(=O)c6cccc7cccc5c67)cc4)c4ccccc43)[C@@H]2C)cc1" shows z-score of -0.3 or more.
Reply: 0

Ask: Does the compound "COc1ccc([Si](C)(C)[C@@H]2[C@@H](CC(=O)N3CCC[C@H]3CO)O[C@]3(C(=O)N(Cc4cccc(N5C(=O)c6cccc7cccc5c67)c4)c4ccccc43)[C@H]2C)cc1" have recorded z-score that is -0.3 or more?
Reply: 0

Ask: Dear colleague, could you confirm whether "C=CC[C@H](O)c1ccc(O)c2ccccc12" has z-score at or above -0.3?
Reply: 1

Ask: I'd appreciate it if you could say whether "Cc1ccc(S[C@]2(C(=O)NC3CC3)CC(=O)N(C3Cc4ccccc4C3)[C@@H]2c2ccc(CO)cc2I)cc1" has z-score at least equal to -0.3.
Reply: 0

Ask: Determine whether this compound has z-score no lower than -0.3: "[N-]=[N+]=NCc1ccccc1[C@H]1OC(c2ccc(OCCCO)cc2)=N[C@@]1(Cc1ccccc1N=[N+]=[N-])C(=O)O"
Reply: 0

Ask: Entry "C=CC[C@]1(C(=O)NCCN2CCOCC2)N=C(c2ccc(OCCCO)cc2)O[C@H]1c1ccccc1" : is its z-score no less than -0.3?
Reply: 0

Ask: Does "COC(=O)[C@]1(Cc2ccccc2N=[N+]=[N-])N=C(c2ccc(OCCCO)cc2)O[C@@H]1c1ccccc1CN=[N+]=[N-]" have a reported z-score of at least -0.3?
Reply: 0

Ask: Test whether the compound "C=CCNC(=O)[C@@H]1[C@H]2C(=O)O[C@H](c3ccccc3)[C@H](c3ccccc3)N2[C@H](c2ccc(O)cc2)[C@@]12C(=O)N(C(=O)OCCOC)c1ccc(C#CCC(C(=O)OC)C(=O)OC)cc12" records z-score of -0.3 or higher.
Reply: 0

Ask: Threshold query (z-score >= -0.3) on "COc1cc(Cc2cc3c(c(-c4ccccc4)n2)[Si](C(C)C)(C(C)C)OC3)cc(OC)c1OC"
Reply: 0

Ask: Determine whether measured z-score meets or exceeds -0.3 for "COc1ccc([Si](C)(C)[C@H]2[C@H](CC(=O)N(CCO)Cc3ccccc3)O[C@@]3(C(=O)N(c4ccccc4)c4ccccc43)[C@@H]2C)cc1"
Reply: 0

Ask: Threshold query (z-score >= -0.3) on "CC(C)(C)OC(=O)N1[C@@H](C=C(Br)Br)COC1(C)C"
Reply: 0

Ask: Quick check: does "COC(=O)[C@@]1(Cc2ccc(F)cc2)[C@H]2c3cc(C(=O)N4CCCC4)n(C[C@H](O)CO)c3C[C@H]2CN1C(=O)c1ccccc1" have z-score greater than or equal to -0.3?
Reply: 1

Ask: Is the recorded value of z-score equal to or greater than -0.3 for this compound? COC(=O)C1=CC(c2ccc(CO)cc2)=CC(C2CC2)N(Cc2cc3c(cc2Br)OCO3)C=C1C(=O)OC (centres undefined)
Reply: 0

Ask: Given "CC(C)C[C@@H]1NC(=O)[C@@H]2C[C@H](C(=O)NCCCCCCNC(=O)CS)[C@H](c3ccc(O)cc3)N2C1=O" , state whether its z-score is at least -0.3.
Reply: 0

Ask: Hello, I need to know if "COc1ccc([Si](C)(C)[C@H]2[C@H](CC(=O)N3CCC[C@H]3CO)O[C@@]3(C(=O)N(Cc4cccc(N5CCCCC5=O)c4)c4ccccc43)[C@@H]2C)cc1" has measured z-score not below -0.3. Thanks!
Reply: 0

Ask: Does the compound CCOC(=O)C1=CCC(c2ccncc2)N(S(=O)(=O)c2ccc(C)cc2)C1 (centres undefined) have recorded z-score that is -0.3 or more?
Reply: 0

Ask: Hi team, for "COC(=O)[C@@]1(Cc2ccccc2)[C@H]2c3cc(C(=O)N(C)C)n(Cc4nc5ccccc5[nH]4)c3C[C@H]2CN1C(=O)c1ccccc1" , is the recorded z-score at or above -0.3?
Reply: 0

Ask: For this compound, is measured z-score -0.3 or higher? CN1C(=O)C2C=CC(C(O)c3ccc([N+](=O)[O-])cc3)N(Nc3ccccc3)C2C1=O (centres undefined)
Reply: 1

Ask: Decide: is the reported value of z-score for "COC(=O)[C@H]1N=C(c2ccc(OCCCO)cc2)O[C@H]1c1ccccc1N=[N+]=[N-]" equal to or greater than -0.3?
Reply: 0

Ask: Given the entry CC1C2C(CCCO)=CC(C3C(=O)N(C(N)=O)C(=O)C23)N1Cc1cccc(OC(F)(F)F)c1 (centres undefined) , answer whether its z-score meets or surpasses -0.3.
Reply: 1

Ask: In plain terms: is recorded z-score at least -0.3 for "COCCOC(=O)N1C(=O)[C@@]2(c3cc(C#CCNC(N)=O)ccc31)[C@H](C(N)=O)[C@H]1C(=O)O[C@H](c3ccccc3)[C@H](c3ccccc3)N1[C@@H]2c1ccc(O)cc1" ?
Reply: 1

Ask: API: above_or_equal(metric=z-score, cutoff=-0.3) for item "C=CCN1C(=O)[C@]2(O[C@H](CCO)[C@@H]([Si](C)(C)c3ccc(OC)cc3)[C@@H]2C)c2cc(N3C(=O)c4ccccc4Oc4ccccc43)ccc21"
Reply: 0

Ask: API: above_or_equal(metric=z-score, cutoff=-0.3) for item "COc1cccc(C)c1NC(=O)O[C@H]1[C@H](OC(=O)Nc2ccccc2-c2ccccc2)[C@@H](OC(=O)Nc2ccccc2-c2ccccc2)[C@@H](OC)O[C@@H]1CO"
Reply: 0
